- study_target: human OX1 receptor (Homo sapiens)
- Sequence (O43613 1-425): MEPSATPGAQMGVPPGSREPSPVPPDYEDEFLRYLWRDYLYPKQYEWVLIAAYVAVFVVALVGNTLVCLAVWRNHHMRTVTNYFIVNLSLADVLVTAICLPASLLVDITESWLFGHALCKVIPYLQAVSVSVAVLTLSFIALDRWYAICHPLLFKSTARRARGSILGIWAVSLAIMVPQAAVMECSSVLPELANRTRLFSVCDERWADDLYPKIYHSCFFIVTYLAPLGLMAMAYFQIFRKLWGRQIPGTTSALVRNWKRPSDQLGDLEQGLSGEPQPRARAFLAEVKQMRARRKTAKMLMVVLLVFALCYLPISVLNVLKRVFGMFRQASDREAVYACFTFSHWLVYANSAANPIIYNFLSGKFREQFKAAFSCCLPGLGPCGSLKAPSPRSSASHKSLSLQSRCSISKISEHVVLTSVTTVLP
- test_method_notes: IPone accumulation assay, CHO cells expressing OX1 (antagonism of orexin A)
- Assay type: cell-based
- assay_conditions: IPone accumulation, CHO human OX1, orexin A EC80 challenge (~20 nM); read-out: fpKb average OX1 (converted)
- Procedure: Generation of CHO stable cell lines expressing the human OX1R and OX2R. Stable cell lines for the human OX1R and OX2R receptors were generated through the transfection of CHO cells using the transfection reagent Genejuice (Novagen number 70967) and cDNA coding for either the human OX1R or OX2R. Cells were cultured in Sigma Nutrient Mixture F-12 Ham media (catalog number N6658) supplemented with 10% heat-inactivated FBS. […]
value_type: Kb
Output should be the measured figure followed by the unit it is expressed in.

Recorded Kb, per entry:
compound: COc1ncc(N2CCc3c(F)cccc3N(Cc3c(C)cc(Br)cc3F)C2=O)cc1S(C)(=O)=O
study_target: human OX1 receptor (Homo sapiens)
Kb: 10 nM
--
compound: COc1ncc(C2CCc3c(F)cccc3N(Cc3c(F)cc(Br)cc3F)C2=O)cc1C(C)(F)F (single isomer, unassigned)
study_target: human OX1 receptor (Homo sapiens)
Kb: 12.6 nM
--
compound: CCCc1cc(F)c(CN2C(=O)N(c3cnc(C)c(C(C)(F)F)c3)CCc3c(F)cccc32)c(F)c1
study_target: human OX1 receptor (Homo sapiens)
Kb: 79.4 nM
--
compound: COc1ncc(C2CCc3c(F)cccc3N(Cc3c(F)cc(Br)cc3F)C2=O)cc1S(C)(=O)=O (single isomer, unassigned) [Example 21]
study_target: human OX1 receptor (Homo sapiens)
Kb: 10 nM
--
compound: COCc1cc(F)c(CN2C(=O)N(c3cc(C(C)(F)F)c(OC)nc3OC)CCc3c(F)cccc32)c(F)c1
study_target: human OX1 receptor (Homo sapiens)
Kb: 63.1 nM

Bench note: what Kb did Cc1ccc(N2CCc3c(F)cccc3N(Cc3c(F)cc(Br)cc3F)C2=O)cc1S(C)(=O)=O show?
126 nM

Bench note: what Kb did Cc1ncc(N2CCc3c(F)cccc3N(Cc3c(F)cc(Br)cc3F)C2=O)cc1C(C)(F)F show?
63.1 nM

---

Protein target, amino acids: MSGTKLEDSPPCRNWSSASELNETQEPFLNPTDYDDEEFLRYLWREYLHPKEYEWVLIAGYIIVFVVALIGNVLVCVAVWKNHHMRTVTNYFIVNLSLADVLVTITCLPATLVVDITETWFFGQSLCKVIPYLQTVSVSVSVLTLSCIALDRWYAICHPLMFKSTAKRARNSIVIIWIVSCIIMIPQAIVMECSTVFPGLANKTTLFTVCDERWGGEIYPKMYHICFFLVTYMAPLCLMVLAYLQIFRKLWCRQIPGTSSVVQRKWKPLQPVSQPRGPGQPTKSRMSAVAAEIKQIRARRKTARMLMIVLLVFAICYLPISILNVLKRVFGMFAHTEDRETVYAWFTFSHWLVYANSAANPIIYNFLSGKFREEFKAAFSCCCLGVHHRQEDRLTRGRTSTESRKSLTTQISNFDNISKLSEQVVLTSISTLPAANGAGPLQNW
value_type: Kd (nM)
# value in nM; strip the unit string

Bench note: what Kd did COc1cc(F)c(CN2C(=O)N(c3cnc(OC)c(OC)c3)S(=O)(=O)c3ccccc32)c(F)c1 [reference compound] show?
0.75

---

Protein target, amino acids: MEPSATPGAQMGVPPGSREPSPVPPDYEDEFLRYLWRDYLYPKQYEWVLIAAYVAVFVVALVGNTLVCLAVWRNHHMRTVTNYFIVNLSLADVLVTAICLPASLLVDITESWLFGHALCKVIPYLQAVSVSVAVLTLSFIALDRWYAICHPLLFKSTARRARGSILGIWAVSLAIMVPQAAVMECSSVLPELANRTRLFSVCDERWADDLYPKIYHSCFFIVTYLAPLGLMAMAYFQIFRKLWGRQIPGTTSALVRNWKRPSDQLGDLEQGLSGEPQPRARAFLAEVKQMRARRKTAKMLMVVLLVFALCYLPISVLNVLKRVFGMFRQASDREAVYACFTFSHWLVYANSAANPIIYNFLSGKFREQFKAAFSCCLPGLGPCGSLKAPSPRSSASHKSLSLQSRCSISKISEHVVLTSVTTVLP
value_type: Kd (nM)
# value in nM; strip the unit string

Bench note: what Kd did COc1cc(F)c(CN2C(=O)N(c3cnc(OC)c(OC)c3)S(=O)(=O)c3ccccc32)c(F)c1 [reference compound] show?
1.5

---

- study_target: human OX1 receptor (Homo sapiens, UniProt O43613)
- Sequence (O43613 1-425): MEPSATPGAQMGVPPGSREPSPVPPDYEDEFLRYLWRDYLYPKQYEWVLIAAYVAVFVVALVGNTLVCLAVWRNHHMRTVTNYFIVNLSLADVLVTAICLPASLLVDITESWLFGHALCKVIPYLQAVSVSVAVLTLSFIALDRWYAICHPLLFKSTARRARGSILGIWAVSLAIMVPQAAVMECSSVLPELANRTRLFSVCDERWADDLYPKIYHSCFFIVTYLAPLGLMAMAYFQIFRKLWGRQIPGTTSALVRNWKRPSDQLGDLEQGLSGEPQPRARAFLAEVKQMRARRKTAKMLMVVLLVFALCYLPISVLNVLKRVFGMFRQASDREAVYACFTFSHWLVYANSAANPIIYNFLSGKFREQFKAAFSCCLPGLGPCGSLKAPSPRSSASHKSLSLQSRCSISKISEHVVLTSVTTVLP
- test_method_notes: IPone accumulation assay, CHO cells expressing OX1 (antagonism of orexin A)
- Type: cell-based
- assay_conditions: IPone accumulation, CHO human OX1, orexin A EC80 challenge (~20 nM); read-out: fpKb average OX1 (converted)
Listed next: entries and their corresponding Kb.

Recorded Kb, per entry:
compound: Cc1ncc(C2CCc3c(F)cccc3N(Cc3c(F)cc(Br)cc3F)C2=O)cc1C(C)(F)F (single isomer, unassigned) [Example 36]
value_type: Kb
measured: 20 nM
//
compound: COc1cc(F)c(CN2C(=O)N(c3cc(S(C)(=O)=O)c(OC)nc3OC)CCc3c(F)cccc32)c(F)c1
value_type: Kb
measured: 10 nM
//
compound: Cc1ccc(N2CCc3c(F)cccc3N(Cc3c(F)cc(Br)cc3F)C2=O)cc1C(C)(F)F
value_type: Kb
measured: 158 nM

Bench note: what Kb did CCCc1cc(F)c(CN2C(=O)N(c3ccc(C)c(S(C)(=O)=O)c3)CCc3c(F)cccc32)c(F)c1 show?
79.4 nM

---

- study_target: UniProt O43614
- Sequence (O43614 1-444): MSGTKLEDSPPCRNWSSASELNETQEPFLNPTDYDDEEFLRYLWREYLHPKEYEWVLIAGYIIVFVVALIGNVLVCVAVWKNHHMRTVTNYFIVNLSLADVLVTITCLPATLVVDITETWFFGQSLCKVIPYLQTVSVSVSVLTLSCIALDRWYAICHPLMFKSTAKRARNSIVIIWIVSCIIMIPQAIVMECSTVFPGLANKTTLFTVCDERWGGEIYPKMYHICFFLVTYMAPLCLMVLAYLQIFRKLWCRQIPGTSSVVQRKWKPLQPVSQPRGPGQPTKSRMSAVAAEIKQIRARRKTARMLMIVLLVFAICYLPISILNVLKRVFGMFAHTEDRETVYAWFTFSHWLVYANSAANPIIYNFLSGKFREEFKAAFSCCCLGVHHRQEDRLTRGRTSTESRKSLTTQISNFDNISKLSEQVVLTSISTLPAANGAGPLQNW
- test_method_notes: [3H]-radioligand binding assay, OX2
- Design: made in house; host or cells: SF21 insect cells (baculovirus; P0 virus made in SF9)
- assay_conditions: [3H]-radioligand binding, human OX2 membranes; read-out: pKi average OX2 (converted)
value_type: Ki

molecule: Cc1cc(C)c(S(C)(=O)=O)cc1N1CCc2c(F)cccc2N(Cc2c(F)cc(Br)cc2F)C1=O [Example 31]
Ki: 200 nM
--
molecule: COc1ncc(C2CCc3c(F)cccc3N(Cc3c(F)cc(Br)cc3F)C2=O)cc1S(C)(=O)=O (single isomer, unassigned) [Example 20]
Ki: > 631 nM
--
molecule: CCCc1cc(F)c(CN2C(=O)N(c3ccc(C)c(S(C)(=O)=O)c3)CCc3c(F)cccc32)c(F)c1 [Example 28]
Ki: > 316 nM
--
molecule: COc1ncc(N2CCc3c(F)cccc3N(Cc3ccc(Br)cc3F)C2=O)cc1C(C)(F)F [Example 10]
Ki: > 251 nM

Bench note: what Ki did COCc1cc(F)c(CN2C(=O)N(c3cnc(C)c(C(C)(F)F)c3)CCc3c(F)cccc32)c(F)c1 [Example 33] show?
> 251 nM

Bench note: what Ki did COc1nc(OC)c(C(C)(F)F)cc1N1CCc2c(F)cccc2N(Cc2c(F)cc(Br)cc2F)C1=O [Example 23] show?
> 126 nM

Bench note: what Ki did Cc1ccc(N2CCc3c(F)cccc3N(Cc3c(F)cc(Br)cc3F)C2=O)cc1C(C)(F)F [Example 1] show?
200 nM
